- Test Summary: Cytotoxicity: 50% extinction of HB611 cells
- Format: cell-based
- Run Conditions: human, read-out: 50% cytotoxic concentration against HB611 cells
Endpoint: CC50

Example results:
INSERT INTO measurements (compound, endpoint_result) VALUES
  ('CC(C)(C)C(=O)OCOP(=O)(COCCn1cnc2c(N)ncnc21)OCOC(=O)C(C)(C)C [Reference 1, dipivaloyloxymethyl ester of PMEA]', '11 µM'),
  ('COc1cccc(Sc2nc(N)nc3c2ncn3CCOCP(=O)(OCC(F)(F)F)OCC(F)(F)F)c1', '> 1000 µM');

get_value(item= COc1ccccc1Sc1nc(N)nc2c1ncn2CCOCP(=O)(OCC(F)(F)F)OCC(F)(F)F , readout=CC50) returns > 1000 µM

get_value(item= Nc1nc(Sc2ccccc2)c2ncn(CCOCP(=O)(OCC(F)(F)F)OCC(F)(F)F)c2n1 , readout=CC50) returns > 1000 µM

get_value(item= Cc1ccc(Sc2nc(N)nc3c2ncn3CCOCP(=O)(OCC(F)(F)F)OCC(F)(F)F)cc1 [Reference 2] , readout=CC50) returns 108 µM

get_value(item= COc1ccc(Sc2nc(N)nc3c2ncn3CCOCP(=O)(OCC(F)(F)F)OCC(F)(F)F)cc1 , readout=CC50) returns > 1000 µM

====

Catalogue of compounds with associated IC50
- Test system: Hepatitis B virus (HBV)
- Test Summary: HBV growth inhibition: inhibition of cytoplasmic HBV-DNA synthesis in HB611 cells (Southern blotting)
- Format: cell-based
- Run Conditions: HB611 cells, compound in medium after 8, 11 and 14 days, DNA collected on 17th day, read-out: 50% inhibitory concentration against HBV-DNA synthesis
Hi, when you answer, please include the unit after the number. Thanks!

get_value(item= Cc1ccc(Sc2nc(N)nc3c2ncn3CCOCP(=O)(OCC(F)(F)F)OCC(F)(F)F)cc1 [Reference 2] , readout=IC50) returns 60 nM

get_value(item= COc1cccc(Sc2nc(N)nc3c2ncn3CCOCP(=O)(OCC(F)(F)F)OCC(F)(F)F)c1 , readout=IC50) returns 40 nM

get_value(item= COc1ccc(Sc2nc(N)nc3c2ncn3CCOCP(=O)(OCC(F)(F)F)OCC(F)(F)F)cc1 , readout=IC50) returns 50 nM

get_value(item= Nc1nc(Sc2ccccc2)c2ncn(CCOCP(=O)(OCC(F)(F)F)OCC(F)(F)F)c2n1 , readout=IC50) returns 10 nM

get_value(item= COc1ccccc1Sc1nc(N)nc2c1ncn2CCOCP(=O)(OCC(F)(F)F)OCC(F)(F)F , readout=IC50) returns 80 nM
